Catalogue of TGI readings, one per entry.
System: LOX IMVI melanoma
Assay Notes: NCI tumour cell line growth inhibition, 48 h
Observable: TGI

INSERT INTO assay_data (compound, study_system, reported_measurement) VALUES
  ('Cn1cc(-c2csc(-c3ccc(Cl)cc3)n2)c2cccnc21', 'LOX IMVI melanoma', '24.9 µM'),
  ('CN1Cc2ccccc2C2(COc3ccccc3C2=O)C1 (configuration not stated)', 'LOX IMVI melanoma', '> 100 µM'),
  ('CC(=O)OC1C2CCC3CC2C2(SCCS2)C31 (configuration not stated)', 'LOX IMVI melanoma', '> 100 µM'),
  ('COc1cccc(C=NC23CC4CC(CC(C4)C2)C3)c1', 'LOX IMVI melanoma', '> 100 µM'),
  ('O=C(O)C12C=CC(C1)c1ccccc12 (configuration not stated)', 'LOX IMVI melanoma', '> 100 µM'),
  ('C#CC(O)/C=C/C(O)CCCC(O)CC#CC(O)C#CCCCCC(O)/C=C/CCCC(=O)CCCCCCCCCCCCCCCC(O)C(O)C#CC(=O)O (configuration not stated)', 'LOX IMVI melanoma', '10.4 µM'),
  ('CN1CCC(O)(OC(=O)C(c2ccccc2)C2(O)CCCC2)CC1 (configuration not stated)', 'LOX IMVI melanoma', '> 100 µM');
